Where do the numbers come from? From paper PMC7233196.

Molecular target: VYN-Tb (TbYcgR)
Test: BRET ratio titration, purified sensor
Assay type: binding
Conditions: read-out: KD(nM)^a; 3 nM sensor; pH 7.2, 100 mM KCl, 10 mM DTT, 0.1% BSA, 28 °C; Hill fit
ASSAY_METRIC: Kd (nM)
Answers are plain numbers, in nM.

Returns the measured Kd for the input molecule. Input: Nc1nc2c(ncn2[C@@H]2O[C@@H]3COP(=O)(O)O[C@H]4[C@@H](O)[C@H](n5cnc6c(=O)[nH]c(N)nc65)O[C@@H]4COP(=O)(O)O[C@H]3[C@H]2O)c(=O)[nH]1
8

====

Molecular target: Vcp173-Nt (NtYcgR)
Test: BRET ratio titration, purified sensor
Assay type: binding
Settings: read-out: KD(nM)^a; 3 nM sensor; pH 7.2, 100 mM KCl, 10 mM DTT, 0.1% BSA, 28 °C; Hill fit
ASSAY_METRIC: Kd (nM)
Answers are plain numbers, in nM.

Returns the measured Kd for the input molecule. Input: Nc1nc2c(ncn2[C@@H]2O[C@@H]3COP(=O)(O)O[C@H]4[C@@H](O)[C@H](n5cnc6c(=O)[nH]c(N)nc65)O[C@@H]4COP(=O)(O)O[C@H]3[C@H]2O)c(=O)[nH]1 [c-di-GMP]
17

====

Target: tVYN-NtΔ (NtYcgRΔ)
Assay: BRET ratio titration, purified sensor
Assay type: binding
Conditions: read-out: KD(nM)^a; 3 nM sensor; pH 7.2, 100 mM KCl, 10 mM DTT, 0.1% BSA, 28 °C; Hill fit
ASSAY_METRIC: Kd (nM)
One number for each entry, in nM.

For tVYN-NtΔ (NtYcgRΔ), provide Kd of Nc1nc2c(ncn2[C@@H]2O[C@@H]3COP(=O)(O)O[C@H]4[C@@H](O)[C@H](n5cnc6c(=O)[nH]c(N)nc65)O[C@@H]4COP(=O)(O)O[C@H]3[C@H]2O)c(=O)[nH]1 please.
54
